System: Fibrinogen (Alexa647-labelled)
Experiment: fibrinogen binders on compound microarrays, profiling panel, artefact control for SMM control-protein annotation, biochemical, small-molecule microarray, 635/667 nm fluorescence (AID 1131);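 also: z-score merges 667 nm fluorescence with per-spot signal-to-noise over triplicate slides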
Details: fibrinogen-A647 binding fluorescence, higher = more signal
OBSERVED_PROPERTY: composite z-score
Number, no unit, nothing else.

[
  {
    "COMPOUND": "COc1ccc([Si](C)(C)[C@H]2[C@H](CCO)O[C@@]3(C(=O)N(Cc4ccccc4)c4ccc(N5CCOC5=O)cc43)[C@@H]2C)cc1",
    "composite z-score": 0.773
  },
  {
    "COMPOUND": "CC1(C)C(=O)C(c2ccccc2)=C2CN3C(=O)N(CCc4ccccc4)C(=O)C3(Cc3ccc(C(F)(F)F)cc3)C=C21 (stereo not given)",
    "composite z-score": 0.414
  },
  {
    "COMPOUND": "[N-]=[N+]=Nc1ccccc1C[C@]1(C(=O)NCc2ccccc2)COC(c2ccc(OCCCO)cc2)=N1",
    "composite z-score": 0.963
  },
  {
    "COMPOUND": "COC(=O)[C@@]1(Cc2ccc(OC)cc2)[C@H]2c3cc(C(=O)N4CCCC4)n(Cc4ccc(OC(F)(F)F)cc4)c3C[C@H]2CN1C(=O)c1ccccc1",
    "composite z-score": 1
  },
  {
    "COMPOUND": "C=CCN1C(=O)[C@]2(O[C@H](CCO)[C@@H]([Si](C)(C)c3ccc(OC)cc3)[C@@H]2C)c2cc(NC(=O)c3ccc(OC)cc3)ccc21",
    "composite z-score": 0.318
  },
  {
    "COMPOUND": "COCCCNC(=O)[C@@]1(Sc2ccc(C)cc2)CC(=O)N(C(C)C)[C@@H]1c1ccc(CO)cc1I",
    "composite z-score": -0.491
  }
]

The reported value for `C=C(COC)C(=O)CC[C@H](OC(=O)c1cccnc1)c1ccc(CO)o1` in terms of composite z-score is 0.978

The reported value for `CCCC=C(CCC)[C@@H](NC(=O)CCc1ccccc1)c1ccc(C(F)(F)F)cc1` in terms of composite z-score is 0.973

The reported value for `C[C@@H]1ON(c2ccc(I)cc2)[C@H](c2ccc(OC(=O)OC(C)(C)C)cc2)[C@H]1C(=O)N1C(=O)OC[C@H]1Cc1ccccc1` in terms of composite z-score is 0.966

The reported value for `C=C(COC)/C(=C/C[C@@H](OC(=O)c1ccncc1)c1ccccc1OCCO)c1cc(C(=O)OC)ccc1OC` in terms of composite z-score is -1.5

The reported value for `CC(C)C(=C=CC[C@@H](O)c1cccc(OCCO)c1)C[C@@H](O)c1ccccn1` in terms of composite z-score is -1.15

The reported value for `CC(C)CNC(=O)[C@@]1(c2ccc([N+](=O)[O-])cc2)CC(=O)N(C2CCCCC2)[C@@H]1c1ccc(CO)cc1` in terms of composite z-score is 0.583

The reported value for O=C1C2C=CC(C(O)c3cc(C(F)(F)F)cc(C(F)(F)F)c3)N(Nc3ccccc3F)C2C(=O)N1c1ccccc1 (stereo not given) in terms of composite z-score is 0.847

The reported value for `NC(=O)[C@H]1[C@@H]2C(=O)O[C@@H](c3ccccc3)[C@@H](c3ccccc3)N2[C@@H](c2ccc(O)cc2)[C@]12C(=O)Nc1ccc(C#CC3=CCCCC3)cc12` in terms of composite z-score is 0.587

The reported value for `[N-]=[N+]=NCc1ccccc1[C@H]1OC(c2ccc(OCCCO)cc2)=N[C@@]1(CCS(=O)(=O)c1ccccc1)C(=O)NCc1ccccc1` in terms of composite z-score is 0.941
